# System: Enterococcus sp.
# assay.comment: in vitro antibacterial evaluation, MIC by broth dilution
# Assay type: cell-based
# particulars: broth dilution, 18 hours at 35° C.; strain ATCC 29212
Numbered stars: 1 amine (or outer) side, 2 acyl side, 3 side chain; on linkers, the order of the positions; unused ones are H or OH. Square brackets hold non-standard residues; d marks the D form. Peptide text beside a SMILES is read from it. * marks the point of attachment. ξ: configuration not given here. X1 = N=C1NCC(C(O)C(N[*:1])C(=O)[*:2])N1C1OC(CO)C(O)C(O)C1O; ξEnduracididine(βξ-OH,4'ξ) = N=C1NCC(C(O)C(N)C(=O)O)N1; X2 = OCC1OC(OC2C(CO)OC(*)C(O)C2O)C(O)C(O)C1O; Cha = N[CH](CC1CCCCC1)C(=O)O
parameter.measured: MIC Enterococcus faecalis (ATCC 29212)

Below, 3 molecules whose answers are already recorded.
molecule | test.system | parameter.measured | value
CC(c1ccccc1)C1NC(=O)CNC(=O)C(CO)NC(=O)C(C(O)C2CNC(=N)N2C2OC(CO)C(O)C(O)C2O)NC(=O)C(C(O)C2CNC(=N)N2)NC(=O)C(Cc2ccc(OC3OC(CO)C(OC4OC(COCc5cccs5)C(O)C(O)C4O)C(O)C3O)cc2)NC1=O (stereo not shown) | Enterococcus sp. | MIC Enterococcus faecalis (ATCC 29212) | 32 mg/L
CC(c1ccccc1)C1NC(=O)CNC(=O)C(CO)NC(=O)C(C(O)C2CNC(=N)N2C2OC(CO)C(O)C(O)C2O)NC(=O)C(C(O)C2CNC(=N)N2)NC(=O)C(Cc2ccc(OC3OC(CO)C(OC4OC5COC(CC(C)(C)C)OC5C(O)C4O)C(O)C3O)cc2)NC1=O (stereo not shown) | Enterococcus sp. | MIC Enterococcus faecalis (ATCC 29212) | 4 mg/L
N=C1NCC(C(O)C2NC(=O)C(Cc3ccc(OC4OC(CO)C(OC5OC(CO)C(O)C(O)C5O)C(O)C4O)cc3)NC(=O)C(CC3CCCCC3)NC(=O)CNC(=O)C(CO)NC(=O)C(C(O)C3CNC(=N)N3C3OC(CO)C(O)C(O)C3O)NC2=O)N1 (stereo not drawn) [Example 263] (cyclo(G[Cha]Y(X2)[ξEnduracididine(βξ-OH,4'ξ)][X1]S); configuration not given here) | Enterococcus sp. | MIC Enterococcus faecalis (ATCC 29212) | >64 mg/L

MIC Enterococcus faecalis (ATCC 29212) for CC(C)CC(=O)OC1C(OC2C(CO)OC(Oc3ccc(CC4NC(=O)C(C(C)c5cccc(F)c5)NC(=O)CNC(=O)C(CO)NC(=O)C(C(O)C5CNC(=N)N5C5OC(CO)C(O)C(O)C5O)NC(=O)C(C(O)C5CNC(=N)N5)NC4=O)cc3)C(O)C2O)OC(CO)C(O)C1O (stereo not shown) [Example 264a] ?
64 mg/L

Data request, read-out MIC Enterococcus faecalis (ATCC 29212), for CC(c1ccccc1)C1NC(=O)CNC(=O)C(CO)NC(=O)C(C(O)C2CNC(=N)N2C2OC(CO)C(O)C(O)C2O)NC(=O)C(C(O)C2CNC(=N)N2)NC(=O)C(Cc2ccc(OC3OC(CO)C(OC4OC5COC6(OC5C(O)C4O)C4CC5CC(C4)CC6C5)C(O)C3O)cc2)NC1=O (stereo not shown)
1 to 2 mg/L

Endpoint output: MIC Enterococcus faecalis (ATCC 29212) of CC(c1ccccc1)C1NC(=O)CNC(=O)C(CO)NC(=O)C(C(O)C2CNC(=N)N2C2OC(CO)C(O)C(O)C2O)NC(=O)C(C(O)C2CNC(=N)N2)NC(=O)C(Cc2ccc(OC3OC(CO)C(OC4OC5COC(CC6CCN(C(=O)OCc7ccccc7)CC6)OC5C(O)C4O)C(O)C3O)cc2)NC1=O (stereo not shown) . Value?
2 mg/L

Given the molecule CC(C)CC(=O)OC1C(OC2C(CO)OC(Oc3ccc(CC4NC(=O)C(C(C)c5cccs5)NC(=O)CNC(=O)C(CO)NC(=O)C(C(O)C5CNC(=N)N5C5OC(CO)C(O)C(O)C5O)NC(=O)C(C(O)C5CNC(=N)N5)NC4=O)cc3)C(O)C2O)OC(CO)C(O)C1O (stereo not shown) [Example 265a] , what is its reported MIC Enterococcus faecalis (ATCC 29212)?
64 mg/L

Data origin, for the record: patent US6914045B2
